molecular target: LPA2 6-mer (Homo sapiens); assay: competition
pKi: −log10 of the molar value.
EXPERIMENTAL_ENDPOINT: pKi

{"columns": ["BINDER", "EXPERIMENTAL_RESULT"],
 "data": [
  ["NHERF-2 PDZ2 (N2P2) PDZ2, Q15599 (protein) LRPRLCHLRKGPQGYGFNLHSDKSRPGQYIRSVDPGSPAARSGLRAQDRLIEVNGQNVEGLRHAEVVASIKAREDEARLLVVDPETD", 4.55],
  ["MAGI-3 PDZ6 (M3P6) PDZ6, Q5TCQ9 (protein) GCYPVELERGPRGFGFSLRGGKEYNMGLFILRLAEDGPAIKDGRIHVGDQIVEINGEPTQGITHTRAIELIQAGGNKVLLLLRPGTGLI", 4.32]
]}
